Target or system Micrococcus luteus ATCC 4698: recorded MIC listed per item.
Respond with the figure and its unit, in that order.

COMPOUND_STRUCTURE	REPORTED_MEASUREMENT
CC[C@H]1OC(=O)[C@H](C)[C@@H](O[C@H]2C[C@@](C)(OC)[C@@H](O)[C@H](C)O2)[C@H](C)[C@@H](O[C@@H]2O[C@H](C)C[C@H](N(C)C)[C@H]2O)[C@@]2(C)C[C@@H](C)C(=O)[C@H](C)[C@H]3N(CC(=O)CC=CCO2)C(=O)O[C@]13C	0.78 µg/mL
CC[C@H]1OC(=O)[C@H](C)[C@@H](O[C@H]2C[C@@](C)(OC)[C@@H](O)[C@H](C)O2)[C@H](C)[C@@H](O[C@@H]2O[C@H](C)C[C@H](N(C)C)[C@H]2O)[C@@]2(C)C[C@@H](C)C(=O)[C@H](C)[C@H]3N(CCNC(=O)Cc4ccccc4C=CCO2)C(=O)O[C@]13C	0.78 µg/mL
CC[C@H]1OC(=O)[C@H](C)[C@@H](O[C@H]2C[C@@](C)(OC)[C@@H](OC(C)=O)[C@H](C)O2)[C@H](C)[C@@H](O[C@@H]2O[C@H](C)C[C@H](N(C)C)[C@H]2O)[C@@]2(C)C[C@@H](C)C(=O)[C@H](C)[C@H]3N(CCNCc4cccc(c4)C=CCO2)C(=O)O[C@]13C	1.56 µg/mL

For the next question, use this compound.
Input CC[C@H]1OC(=O)[C@H](C)[C@@H](O[C@H]2C[C@@](C)(OC)[C@@H](O)[C@H](C)O2)[C@H](C)[C@@H](O[C@@H]2O[C@H](C)C[C@H](N(C)C)[C@H]2O)[C@@]2(C)C[C@@H](C)C(=O)[C@H](C)[C@H]3N(CCNC(=O)c4ccccc4C=CCO2)C(=O)O[C@]13C . Output MIC: 1.56 µg/mL
